biological target: PARP-1 enzyme (Homo sapiens); assay: In vitro filtration assay for PARP-1 inhibitory activity; type: biochemical; details: [32P]-NAD, nicked DNA, histones; read-out: in vitro filter assay PARP-1 pIC50 (converted)
// log10 of IC50 lookup, one value per entry
The figures below represent log10 of IC50, where IC50 is stated in nM.

Below are worked cases with known answers.
INSERT INTO results (compound, observable, observed_value) VALUES
  ('O=C(c1ccc(F)cc1)C1CCN(CCCc2nc3ccccc3c(=O)[nH]2)CC1', 'log10 of IC50', 2.74),
  ('O=C1NCN(c2ccccc2)C12CCN(CCCc1nc3ccccc3c(=O)[nH]1)CC2', 'log10 of IC50', 3.70),
  ('O=C(NC1CCN(CCCC2NC(=O)c3ccccc3N2)CC1)c1ccccc1 (centres unmarked)', 'log10 of IC50', 3.20),
  ('O=C(NC1CCN(CCCc2nc3ccccc3c(=O)[nH]2)CC1)c1ccccc1', 'log10 of IC50', 2.83);

// Input: O=C(c1ccc(F)cc1)C1CCN(CCc2nc3ccccc3c(=O)[nH]2)CC1 . Output its log10 of IC50 only.
3.76

Write down log10 of IC50 measured for item NC(=O)C1(N2CCOCC2)CCN(CCCc2nc3ccccc3c(=O)[nH]2)CC1
3.06

For the compound O=C1NC(CCN2CCC3(CC2)C(=O)NCN3c2ccccc2)Nc2ccccc21 (centres unmarked) , give its measured log10 of IC50 value.
3.33

Write down log10 of IC50 measured for item O=C1NC(CCCN2CCC(n3c(=O)[nH]c4ccccc43)CC2)Nc2ccccc21 (centres unmarked)
3.62

###

target: PARP-1 enzyme (Homo sapiens, UniProt P09874); experiment: In vitro filtration assay for PARP-1 inhibitory activity; type: biochemical; settings: [32P]-NAD, nicked DNA, histones; read-out: in vitro filter assay PARP-1 pIC50 (converted)
Sequence (P09874 whole entry): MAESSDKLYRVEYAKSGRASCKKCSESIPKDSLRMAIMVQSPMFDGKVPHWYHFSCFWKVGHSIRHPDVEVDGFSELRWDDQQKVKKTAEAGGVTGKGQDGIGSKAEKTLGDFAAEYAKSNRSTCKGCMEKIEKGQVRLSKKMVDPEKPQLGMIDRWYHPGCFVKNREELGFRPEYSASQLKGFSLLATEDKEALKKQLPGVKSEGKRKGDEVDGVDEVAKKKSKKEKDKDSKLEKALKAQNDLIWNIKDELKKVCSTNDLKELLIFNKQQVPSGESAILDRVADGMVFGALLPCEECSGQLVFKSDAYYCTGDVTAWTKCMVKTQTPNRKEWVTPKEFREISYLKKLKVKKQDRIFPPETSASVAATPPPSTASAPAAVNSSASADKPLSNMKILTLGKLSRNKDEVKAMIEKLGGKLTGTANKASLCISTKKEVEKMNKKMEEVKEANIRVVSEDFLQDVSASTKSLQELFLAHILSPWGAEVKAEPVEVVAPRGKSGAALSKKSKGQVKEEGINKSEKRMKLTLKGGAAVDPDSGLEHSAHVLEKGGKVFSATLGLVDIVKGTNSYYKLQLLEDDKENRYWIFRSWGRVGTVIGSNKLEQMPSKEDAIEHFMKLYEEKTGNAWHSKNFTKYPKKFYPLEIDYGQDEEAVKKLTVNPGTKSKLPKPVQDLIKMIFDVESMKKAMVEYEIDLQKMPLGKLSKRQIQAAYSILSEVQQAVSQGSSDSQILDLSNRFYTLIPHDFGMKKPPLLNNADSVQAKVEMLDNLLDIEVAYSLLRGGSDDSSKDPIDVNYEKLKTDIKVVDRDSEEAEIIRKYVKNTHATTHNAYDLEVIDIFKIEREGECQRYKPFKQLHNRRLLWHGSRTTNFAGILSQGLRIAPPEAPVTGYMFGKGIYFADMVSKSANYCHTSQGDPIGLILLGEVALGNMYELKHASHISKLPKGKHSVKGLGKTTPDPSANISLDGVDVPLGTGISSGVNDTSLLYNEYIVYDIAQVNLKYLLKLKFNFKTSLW
OBSERVABLE: IC50 (nM)
Reply numerically in nM, unit not repeated.

# example entries with known answers
INSERT INTO results (molecule, unit_symbol, observed_value) VALUES
  ('NC(=O)C1(c2ccccc2)CCN(CCCC2NC(=O)c3ccccc3N2)CC1 (stereo not drawn)', 'nM', 300),
  ('O=C(CC1CCN(CCc2nc3ccccc3c(=O)[nH]2)CC1)c1ccc(F)cc1', 'nM', 4260);

Proceed to the following item.
Identify measured IC50 corresponding to NC(=O)C1(c2ccccc2)CCN(CCCc2nc3ccccc3c(=O)[nH]2)CC1
76.7

###

target: PARP-1 enzyme (Homo sapiens, UniProt P09874); assay: In vitro filtration assay for PARP-1 inhibitory activity; assay type: biochemical
OBSERVABLE: IC50 (µM)
Please give a number only; it is taken to be in µM.

Answer briefly: IC50 recorded on PARP-1 enzyme (Homo sapiens, UniProt P09874) for O=C1NC(CCN2CCC(n3c(=O)[nH]c4ccccc43)CC2)Nc2ccccc21 (stereo not shown)
4.66
